# Assayed Target: recombinant BACE1 protein (Homo sapiens)
# Sequence (P56817 46-501): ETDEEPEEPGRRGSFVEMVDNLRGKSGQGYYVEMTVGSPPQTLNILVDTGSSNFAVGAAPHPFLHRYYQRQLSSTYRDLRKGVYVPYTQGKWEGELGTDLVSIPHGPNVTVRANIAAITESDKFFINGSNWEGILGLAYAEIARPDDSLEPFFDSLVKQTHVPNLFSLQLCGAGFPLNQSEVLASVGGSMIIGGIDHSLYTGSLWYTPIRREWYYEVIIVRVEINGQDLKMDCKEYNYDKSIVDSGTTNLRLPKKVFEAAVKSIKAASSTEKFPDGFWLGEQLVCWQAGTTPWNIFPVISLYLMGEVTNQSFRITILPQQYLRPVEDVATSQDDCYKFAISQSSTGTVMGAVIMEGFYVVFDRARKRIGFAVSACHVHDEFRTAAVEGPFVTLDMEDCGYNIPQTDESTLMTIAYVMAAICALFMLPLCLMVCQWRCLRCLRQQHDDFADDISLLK
# Measurement Protocol: Biochemical FRET based assay
# Experimental Conditions: recombinant BACE1 1 μg/ml, 120 minutes at room temperature, pH 5.0; read-out: Biochemical FRET based assay pIC50 (converted)
Observable: IC50 (µM)
Write the number in µM without appending the unit.

Asked: Given "C[C@]1(c2cc(NC(=O)c3ncc(C#N)cc3Cl)ccc2F)N=C(N)CO[C@@]1(F)C(F)(F)F" , respond with its IC50.
Given back: 0.2

Asked: Complete the entry with IC50 for "N#Cc1ccc(C(=O)Nc2cccc([C@@]3(C4CC4)N=C(N)CO[C@H]3C(F)(F)F)c2)nc1"
Given back: 0.0355

Asked: Determine from records and report IC50 for "C[C@]1(c2cc(-c3cncnc3)c(F)cc2F)N=C(N)CO[C@H]1C(F)(F)F"
Given back: 0.851

Asked: Identify measured IC50 associated with "C[C@]1(c2cc(-c3cncc(Cl)c3)c(F)cc2F)N=C(N)CO[C@]1(F)C(F)(F)F"
Given back: 6.46

----------
# System: Aβ42
# Measurement Protocol: Demonstration of in vivo efficacy, brain Aβ42 lowering (ELISA)
# Experimental Conditions: mouse brain, 30 mpk, s.c., 2 h
So I've got a bunch of molecules here, and I need their Aβ42 (% Ctrl)_Mean values.
Value expressed in % Ctrl; do not type the unit.

Asked: Quick one: give measured Aβ42 (% Ctrl)_Mean for "C[C@@]1(c2cccc(-c3cc(Cl)cc(Cl)c3)c2)COCC(N)=N1"
Given back: 68

Asked: Output Aβ42 (% Ctrl)_Mean of C[C@@]1(c2cc(-c3cncnc3)c(F)cc2F)N=C(N)CO[C@H]1F (single isomer, unassigned)
Given back: 57

Asked: Input "N#Cc1ccc(C(=O)Nc2cccc([C@@]3(C4CC4)N=C(N)CO[C@@]3(F)C(F)(F)F)c2)nc1" , output reported Aβ42 (% Ctrl)_Mean.
Given back: 64

Asked: Return reported Aβ42 (% Ctrl)_Mean. Input molecule: "N#Cc1cnc(C(=O)Nc2ccc(F)c([C@@]3(C4CC4)N=C(N)CO[C@@H]3F)c2)c(Cl)c1"
Given back: 99

Asked: Please indicate Aβ42 (% Ctrl)_Mean recorded for "NC1=N[C@@](c2cc(NC(=O)c3ncc(Cl)cc3F)ccc2F)(C2CC2)[C@@H](F)OC1"
Given back: 95

Asked: Indicate the recorded Aβ42 (% Ctrl)_Mean value for this molecule: CC1(c2cccc(-c3cncnc3)c2)N=C(N)COC1(F)C(F)(F)F (single isomer, unassigned)
Given back: 95

Asked: Item CC1(c2cc(-c3cncnc3)c(F)cc2F)COCC(N)=N1 (racemic) : provide Aβ42 (% Ctrl)_Mean
Given back: 114

----------
# System: Abeta total
# Measurement Protocol: Cellular αLisa assay in SKNBE2 cells, Abeta total
# Assay type: cell-based, human
# Experimental Conditions: Homo sapiens, SKNBE2, 18 h, incubated for 18 hours, read-out: Cellular αLisa assay in SKNBE2 cells Abetatotal pIC50 (converted)
Where a name gives a salt, the structure may show the parent alone.
One threshold, 100 nM, splits the recorded IC50 values: lower ones are Met, equal or higher ones are Not met.

Asked: In the record for "NC1=N[C@@](c2cccc(NC(=O)c3cnc(OCC(F)(F)F)cn3)c2)(C2CC2)[C@H](C(F)(F)F)OC1" , is IC50 less than 100 nM?
Given back: Met

Asked: Field: below-cutoff. Rule: recorded IC50 strictly less than 100 nM. Subject: NC1=NC(c2cccc(NC(=O)c3ccc(Cl)cn3)c2)(C2CC2)COC1 (racemic)
Given back: Met

Asked: API: query returns whether the compound falls strictly under 100 nM in IC50. Query: C[C@]1(c2cccc(NC(=O)c3ccc(Cl)cn3)c2)N=C(N)CO[C@@H]1F (single isomer, unassigned)
Given back: Met

Asked: Lab log: compare recorded IC50 with 100 nM; is it strictly lower for CC1(c2cccc(-c3cncnc3)c2)COCC(N)=N1 (racemic) [Compound 3, trifluoroacetate salt] ?
Given back: Not met

Asked: Check if IC50 falls below 100 nM for CC1(c2cc(-c3cncnc3)ccc2F)N=C(N)COC1(F)C(F)(F)F (single isomer, unassigned) .
Given back: Not met

Asked: Consider the compound "C[C@]1(c2cc(-c3cncnc3)c(F)cc2F)COC2(CC2)C(N)=N1" . Is its IC50 strictly less than 100 nM?
Given back: Not met

Asked: Confirm or reject: IC50 of C[C@@]1(c2cc(-c3cncnc3)c(F)cc2F)N=C(N)CO[C@H]1F (single isomer, unassigned) lies strictly below 100 nM
Given back: Not met

Asked: Strictly below 100 nM: is that where IC50 of CC1(c2cc(NC(=O)c3ccc(C#N)cn3)ccc2F)N=C(N)COC1F (stereo not drawn) sits?
Given back: Met

Asked: For "COc1cnc(C(=O)Nc2ccc(F)c([C@@]3(C)N=C(N)CO[C@]3(F)C(F)(F)F)c2)cn1" , is the recorded IC50 below the cut-off of 100 nM?
Given back: Not met

Asked: API: query returns whether the compound falls strictly under 100 nM in IC50. Query: "NC1=N[C@@](c2cccc(-c3cncnc3)c2)(C2CC2)[C@H](C(F)(F)F)OC1"
Given back: Met

Asked: Given the entry "COc1ccc(C(=O)Nc2ccc(F)c([C@@]3(C)N=C(N)CO[C@@]3(F)C(F)(F)F)c2)nc1" , would its reported IC50 be below 100 nM?
Given back: Met

Asked: For "C[C@]1(c2cc(NC(=O)c3ccncn3)ccc2F)N=C(N)CO[C@@]1(F)C(F)(F)F" , is the recorded IC50 below the cut-off of 100 nM?
Given back: Not met

Asked: Quick check: IC50 of "Cc1cc(Cl)cnc1C(=O)Nc1ccc(F)c([C@@]2(C3CC3)N=C(N)CO[C@@H]2F)c1" under 100 nM?
Given back: Not met

Asked: hey, is IC50 for "Cc1cc(Cl)cnc1C(=O)Nc1cccc([C@@]2(C3CC3)N=C(N)CO[C@H]2F)c1" lower than 100 nM or not?
Given back: Met

Asked: Lab note: confirm whether the reported IC50 for this compound is below 100 nM, equality not counting. compound: CC1(c2cccc(-c3cc(Cl)cc(Cl)c3)c2)COCC(N)=N1 (racemic)
Given back: Not met
